The following compounds are shown together with reported activation values.
- System: Nuclear hormone receptor DAF-12 (Heterodera glycines), GAL4 fusion
- experimentSummary: H. glycines DAF-12 receptor agonists, primary screen, cell-based, luminescence, HEK293, GAL4 fusion, UAS-luciferase (AID 687014);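 further: 0% = DMSO wells and 100% = sodium butyrate wells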
- runConditions: HEK293 GAL4-hgDAF12 UAS-luciferase reporter, agonist luminescence; at 6.8 µM; hits give high values; normalized to butyrate control
Screen size: about 370,000 compounds; about 6,800 (1.8%) were called active. This excerpt belongs to a sample that is enriched for actives.
observedProperty: activation

>>> recordedvalue("C[C@H](O)[C@@H]1CN2CCc3ccc(-c4ccc5c(c4)OCO5)cc3[C@@H]2C[C@@H]1N(C)C(=O)C1CCCCC1")
"5.63% (inactive)"
>>> recordedvalue("CCCCn1nc(C(=O)N2CCc3ccccc32)c2ccccc2c1=O")
"-0.16% (inactive)"
>>> recordedvalue("N#CC1(Nc2ccc(-c3ccc(Cl)cc3)cc2)CCCC1")
"13.3% (active)"
